- TESTED_ON: Angiotensin II receptor (Rattus norvegicus, UniProt P29089+P25095+P35351)
- ASSAY_DETAILS: Inhibitory concentration that gave 50 percent displacement of specific binding of [3H]AII (2 nM) to Angiotensin II receptor
- Format: protein assay
Class field: derived from IC50; ranges lower segment = under 1 µM, middle segment = from 1 µM up to 30 µM, upper segment = 30 µM and over

Tag the class for CCCCc1nc(Cl)c(CC(=O)OC)n1Cc1ccc(NC(=O)c2c(OC)cccc2C(=O)O)cc1 lower segment

// return the class label for CCCCc1nc(Cl)c(COC)n1Cc1ccc(C(=O)Nc2ccccc2-c2nn[nH]n2)cc1 lower segment

Class label required: CCCCc1nc(Cl)c(COC)n1Cc1ccc(N(C)C(=O)c2c(Cl)ccc(Cl)c2C(=O)O)cc1 middle segment

Looking at CCCCc1nc(Cl)c(CO)n1Cc1ccc(C=O)cc1 , which class would you pick? middle segment

Kindly identify the class of CCCCc1nc(Cl)c(COC)n1Cc1ccc(NC(=O)C(CC(=O)O)c2ccccc2)cc1 (stereo not given) . middle segment

Kindly state the category for this molecule: CCCCc1nc(Cl)c(CC(=O)O)n1Cc1ccccc1C(=O)O upper segment

Hello team, could you let me know which band the following molecule falls into: CCCCc1nc(Cl)c(CC(=O)OC)n1Cc1ccc(NC(=O)c2ccccc2NS(C)(=O)=O)cc1 middle segment

Into which category would you place CCCCCCCc1nccn1Cc1ccc(NC(=O)c2ccccc2C(=O)O)cc1 ? middle segment

Hi, small favor: classify CCCCc1nc(Cl)c(CC(=O)OC)n1Cc1ccc(NCc2ccccc2)cc1 by its IC50 when you get a moment. upper segment

The entry to classify is CCCCc1nc(Cl)c(CC(=O)OC)n1Cc1ccc(NC(=O)c2cc([N+](=O)[O-])cc([N+](=O)[O-])c2O)cc1 ; which class holds it? upper segment

---

- TESTED_ON: Angiotensin II receptor (Rattus norvegicus, UniProt P29089+P25095+P35351)
- Sequence (P29089 whole entry): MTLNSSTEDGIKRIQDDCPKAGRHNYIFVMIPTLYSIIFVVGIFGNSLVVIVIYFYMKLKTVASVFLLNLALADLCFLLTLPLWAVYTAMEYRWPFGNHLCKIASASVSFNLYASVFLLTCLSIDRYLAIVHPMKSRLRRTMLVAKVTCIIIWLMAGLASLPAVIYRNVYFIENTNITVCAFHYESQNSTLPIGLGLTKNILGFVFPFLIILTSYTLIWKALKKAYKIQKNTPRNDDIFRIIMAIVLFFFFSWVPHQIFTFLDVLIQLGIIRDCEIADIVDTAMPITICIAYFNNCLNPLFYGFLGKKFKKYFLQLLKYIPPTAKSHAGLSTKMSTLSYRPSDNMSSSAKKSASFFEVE
- Sequence (P25095 whole entry): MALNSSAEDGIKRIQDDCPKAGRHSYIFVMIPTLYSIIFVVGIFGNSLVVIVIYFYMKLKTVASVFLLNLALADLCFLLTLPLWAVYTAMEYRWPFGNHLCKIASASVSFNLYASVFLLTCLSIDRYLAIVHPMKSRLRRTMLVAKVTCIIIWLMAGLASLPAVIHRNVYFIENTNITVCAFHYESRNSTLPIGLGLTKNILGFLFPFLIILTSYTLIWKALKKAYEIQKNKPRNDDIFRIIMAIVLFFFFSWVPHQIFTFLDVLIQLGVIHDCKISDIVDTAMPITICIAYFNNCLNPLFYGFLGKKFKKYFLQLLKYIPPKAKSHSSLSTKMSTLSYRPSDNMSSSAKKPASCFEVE
- Sequence (P35351 whole entry): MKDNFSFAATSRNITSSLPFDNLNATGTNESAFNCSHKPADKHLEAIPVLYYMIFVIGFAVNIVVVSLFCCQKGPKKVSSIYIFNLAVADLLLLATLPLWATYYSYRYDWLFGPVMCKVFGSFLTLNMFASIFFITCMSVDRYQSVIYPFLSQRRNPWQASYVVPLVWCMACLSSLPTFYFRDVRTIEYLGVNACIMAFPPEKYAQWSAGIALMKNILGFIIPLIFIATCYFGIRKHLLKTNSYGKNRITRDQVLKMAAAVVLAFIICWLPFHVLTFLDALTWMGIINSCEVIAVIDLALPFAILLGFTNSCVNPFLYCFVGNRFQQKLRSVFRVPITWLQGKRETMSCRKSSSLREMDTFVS
- ASSAY_DETAILS: Inhibitory concentration that gave 50 percent displacement of specific binding of [3H]AII (2 nM) to Angiotensin ll receptor
- Type: protein assay
MEASURE: IC50

Examples with answers:
[[record]]
molecular_string = "O=C(O)c1ccccc1C(=O)Nc1ccc(Cn2cncc2CO)cc1"
tested_on = "Angiotensin II receptor (Rattus norvegicus, UniProt P29089+P25095+P35351)"
measured_result = "> 100 µM"

[[record]]
molecular_string = "CCc1nccn1Cc1ccc(NC(=O)c2ccccc2C(=O)O)cc1"
tested_on = "Angiotensin II receptor (Rattus norvegicus, UniProt P29089+P25095+P35351)"
measured_result = "8.5 µM"

[[record]]
molecular_string = "CCCCCc1nccn1Cc1ccc(NC(=O)c2ccccc2C(=O)O)cc1"
tested_on = "Angiotensin II receptor (Rattus norvegicus, UniProt P29089+P25095+P35351)"
measured_result = "0.24 µM"


Entry CCCCc1nccn1Cc1ccc(NC(=O)c2ccccc2C(=O)O)cc1 , system Angiotensin II receptor (Rattus norvegicus, UniProt P29089+P25095+P35351): what IC50 was measured? 0.62 µM

Identify the measured IC50 of COc1ccc(Cc2nccn2Cc2ccc(NC(=O)c3ccccc3C(=O)O)cc2)cc1 for Angiotensin II receptor (Rattus norvegicus, UniProt P29089+P25095+P35351). 2.5 µM

Quick check: IC50 on Angiotensin II receptor (Rattus norvegicus, UniProt P29089+P25095+P35351), item CC(C)c1nccn1Cc1ccc(NC(=O)c2ccccc2C(=O)O)cc1 ? 12 µM

What IC50 appears in the records for this molecule with Angiotensin II receptor (Rattus norvegicus, UniProt P29089+P25095+P35351)? CCCCCCc1nccn1Cc1ccc(NC(=O)c2ccccc2C(=O)O)cc1 0.35 µM

Form entry - test system: Angiotensin II receptor (Rattus norvegicus, UniProt P29089+P25095+P35351); read-out: IC50; molecule: CCCc1nccn1Cc1ccc(NC(=O)c2ccccc2C(=O)O)cc1 3.7 µM

// map Cc1nccn1Cc1ccc(NC(=O)c2ccccc2C(=O)O)cc1 to recorded IC50 (system: Angiotensin II receptor (Rattus norvegicus, UniProt P29089+P25095+P35351)) 100 µM

What is its IC50 for Angiotensin II receptor (Rattus norvegicus, UniProt P29089+P25095+P35351)? Entry: O=C(O)c1ccccc1C(=O)Nc1ccc(Cn2ccnc2CCc2ccccc2)cc1 9.4 µM

Recorded IC50 for O=C(O)c1ccccc1C(=O)Nc1ccc(Cn2ccnc2)cc1 with Angiotensin II receptor (Rattus norvegicus, UniProt P29089+P25095+P35351), please? 100 µM

Lab note: need IC50 for O=C(O)c1ccccc1C(=O)Nc1ccc(Cn2ccnc2CC2CCCCC2)cc1 on Angiotensin II receptor (Rattus norvegicus, UniProt P29089+P25095+P35351), anyone have it? 2.8 µM

---

- TESTED_ON: Angiotensin II receptor (Rattus norvegicus, UniProt P29089+P25095+P35351)
- ASSAY_DETAILS: Inhibitory concentration that gave 50 percent displacement of specific binding of [3H]AII (2 nM) to Angiotensin II receptor
- Format: protein assay
# label = YES if IC50 < 3 µM else NO

These recorded examples may help you get a feel for the data.
[[record]]
molecular_string = "CCCCc1nc(Cl)c(CC(=O)OC)n1Cc1ccc(N2C(=O)C(c3ccccc3)=C(c3ccccc3)C2=O)cc1"
class_label = "NO"

[[record]]
molecular_string = "CCCCc1nc(Cl)c(CO)n1Cc1ccc(/C=N/O)cc1"
class_label = "NO"

[[record]]
molecular_string = "CCCCc1nc(Cl)c(CC(=O)OC)n1Cc1ccc(NC(=O)c2cccc([N+](=O)[O-])c2C(=O)O)cc1"
class_label = "YES"

[[record]]
molecular_string = "CCCCc1nc(CC(=O)OC)c(Cl)n1Cc1ccc(NC(=O)c2ccccc2C(=O)O)cc1"
class_label = "YES"


Determine whether this compound shows IC50 lower than 3 µM (ties excluded): CCCCc1nc(CO)c(Cl)n1Cc1ccc(C(=O)O)cc1 NO

Here's an entry: CCCCc1nc(Cl)c(CC(=O)OC)n1Cc1ccc(NC(=O)c2ccccc2NS(=O)(=O)C(F)(F)F)cc1 . Is its IC50 below 3 µM? YES

Given the entry CCCCc1nc(Cl)c(CC(=O)OC)n1Cc1ccc(NC(=O)c2cc(I)ccc2NS(=O)(=O)C(F)(F)F)cc1 , would its reported IC50 be below 3 µM? NO

Lab note: IC50 threshold 3 µM. Does this compound come in strictly under it? CCCCc1nc(Cl)c(CC(=O)OC)n1Cc1ccccc1NC(=O)c1ccccc1NS(=O)(=O)C(F)(F)F NO

Here's an entry: CCCCc1nc(Cl)c(CC(=O)OC)n1Cc1ccc(N(Cc2ccccc2)C(=O)c2ccccc2NS(=O)(=O)C(F)(F)F)cc1 . Is its IC50 below 3 µM? YES
